Please go through the items and note down their 2xLS.
system: MIA PaCa-2 cells; test: Gemcitabine Combination Cell Assay (Cell Titer Glo); type: cell-based; details: approximate concentration of Chk1 inhibitor that results in a two-fold reduction in the IC50 of gemcitabine alone, MIA PaCa-2 cells, 72 h
Counter-ions that a name gives are not always drawn.
One number for each entry, in nM.

INSERT INTO measurements (molecule, readout_units, quantitative_readout) VALUES
  ('COc1cc(C2CCNCC2)ccc1-c1cc(Nc2ccc(C#N)c(F)c2)n[nH]1', 'nM', 1000),
  ('COc1cc(C2C[C@H](C)N[C@@H](C)C2)ccc1-c1cc(Nc2cnc(C#N)cn2)n[nH]1 (stereo partly drawn)', 'nM', 3),
  ('CCN1CCC(OCc2ccc(-c3cc(Nc4cnc(C#N)cn4)n[nH]3)c(OC)c2)CC1', 'nM', 3),
  ('N#Cc1cnc(Nc2cc(-c3ccc(C4CCNCC4)cc3)[nH]n2)cn1', 'nM', 1000),
  ('COc1c(-c2cc(Nc3cnc(C#N)cn3)n[nH]2)ccc(C2CCNCC2)c1Cl', 'nM', 300);

Value sought for every listed molecule: 2xLS.
1. COc1cc(O[C@@H]2CCN(C)C2)ccc1-c1cc(Nc2cnc(C#N)cn2)n[nH]1
2. CC(C)Oc1cc(C2CCN(C)CC2)ccc1-c1cc(Nc2cnc(C#N)cn2)n[nH]1
3. COc1cc(CNC2CCOC2)ccc1-c1cc(Nc2cnc(C#N)cn2)n[nH]1 (stereo not drawn)

[10, 100, 10]

// each listed molecule needs a value for 2xLS
1. CCN1CCC(c2ccc(-c3cc(Nc4cnc(C#N)cn4)n[nH]3)c(OC)c2)CC1 [Example 60, hydrochloride]
2. COc1cc(COC2CCN(C(C)C)CC2)ccc1-c1cc(Nc2cnc(C#N)cn2)n[nH]1
3. COc1cc(OC2CCNCC2)ccc1-c1cc(Nc2cnc(C#N)cn2)n[nH]1
4. COc1cc(CN[C@H](C)c2ccc(F)cc2)ccc1-c1cc(Nc2cnc(C#N)cn2)n[nH]1
5. COc1cc(C2CCNCC2)ccc1-c1cc(Nc2ccc(C#N)nc2)n[nH]1
6. COc1cc(CN(C)C(C)C)ccc1-c1cc(Nc2cnc(C#N)cn2)n[nH]1

3
3
3
10
30
3

Dear reader, for each entry below, please note its 2xLS.
1. COc1cc(CNCc2ccccc2)ccc1-c1cc(Nc2cnc(C#N)cn2)n[nH]1 [Example 3, hydrochloride]
2. COc1cc(C2CCN(C(=O)CN(C)C)CC2)ccc1-c1cc(Nc2cnc(C#N)cn2)n[nH]1 [Example 17, hydrochloride]
3. COc1cc(C2CCN(C)CC2)c(Cl)cc1-c1cc(Nc2cnc(C#N)cn2)n[nH]1
4. CCN1CCN(c2cc(F)c(-c3cc(Nc4cnc(C#N)cn4)n[nH]3)c(OC)c2)CC1
5. COc1cc(CN2CCOCC2)ccc1-c1cc(Nc2cnc(C#N)cn2)n[nH]1
6. COc1cc(C[C@@H]2CCCN2C(C)C)ccc1-c1cc(Nc2cnc(C#N)cn2)n[nH]1
7. COc1cc([C@H]2CN(C(C)C)CCO2)ccc1-c1cc(Nc2cnc(C#N)cn2)n[nH]1

1. 10
2. 10
3. 100
4. 3
5. 10
6. 3
7. 3
